- method summary: Cell Viability - BJ (AID 421);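 also: cells exposed to compound for 40 hours at 37 °C before readout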
- particulars: BJ fibroblast viability, qHTS
Results filed as inconclusive are left out. Calls of active or inactive are those of the source. Calls follow the shape of the full dose curve.
Answer with one of the outcomes given here: active, inactive

The examples below pair each entry with its known result.
molecule	class
O=[N+]([O-])c1cccc2c([N+](=O)[O-])cccc12	inactive
CCOC(=O)CBr	inactive
CCBr	inactive
COC(=O)Nc1nc2ccccc2[nH]1	inactive
C=CC(=O)OCCN(C)C	inactive
Clc1ccc(C(c2ccccc2Cl)C(Cl)(Cl)Cl)cc1 (configuration not stated)	inactive

Q) Identify the outcome logged in this assay for the molecule shown: "O=S(=O)(O)F"
A) inactive

Q) Fill in: this test's call for "CCCC[N+](=O)[O-]" is ___
A) inactive

Q) Assay outcome for "CN(C)c1ccc(N)cc1" : what was it?
A) active

Q) Dear all, I need the recorded test outcome for "Oc1ccc(Cl)c(Cl)c1" , thank you.
A) inactive

Q) # fetch the recorded call for Cc1coc2c1CCC(C)C2 (configuration not stated) here
A) inactive

* * *

- target entity: Cytochrome P450 3A4 (Homo sapiens) (UniProt P08684)
- Sequence (P08684 whole entry, looked up): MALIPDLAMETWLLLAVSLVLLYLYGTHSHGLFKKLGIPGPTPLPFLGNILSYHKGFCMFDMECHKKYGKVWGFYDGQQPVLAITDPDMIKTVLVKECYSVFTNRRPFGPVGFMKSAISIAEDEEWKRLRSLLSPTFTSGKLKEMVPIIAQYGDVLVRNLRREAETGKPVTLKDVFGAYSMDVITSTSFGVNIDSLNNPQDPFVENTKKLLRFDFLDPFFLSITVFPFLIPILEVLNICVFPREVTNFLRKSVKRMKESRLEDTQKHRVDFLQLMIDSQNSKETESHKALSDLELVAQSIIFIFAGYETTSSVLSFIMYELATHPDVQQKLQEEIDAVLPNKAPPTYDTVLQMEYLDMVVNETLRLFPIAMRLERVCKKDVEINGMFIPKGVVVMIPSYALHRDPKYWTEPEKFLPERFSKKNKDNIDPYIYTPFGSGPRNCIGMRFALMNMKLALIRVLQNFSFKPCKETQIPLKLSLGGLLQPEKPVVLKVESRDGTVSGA
- method summary: qHTS Assay for Activators of Cytochrome P450 3A4 (AID 885); also: nearly all actives have a fitted effect of over 65% in size
- particulars: recombinant CYP3A4, Luciferin-PPXE luminescence, 60 min; series mostly up to 57.1 µM
Calls of active or inactive are those of the source. The call rests on the fitted dose curve; in most records, active means well fitted activation curve with a large enough effect; inconclusive means small, poorly fitted or top-dose-only effect; inactive means no such curve, though single readings can be large or run the other way.
measured metric: activity change, positive = activation

compound	activity change, positive = activation
CC(=O)c1c(O)c(C)c(O)c(Cc2c(O)c3c(c(C(=O)/C=C\c4ccccc4)c2O)OC(C)(C)C=C3)c1O	inactive
O=C(C[C@H](c1ccccc1)c1c(O)c2ccccc2oc1=O)c1ccccc1	-30.1% [at 11.4 µM] (inactive)
Cc1ccc2c(c1N)C(=O)c1ccccc1C2=O	inactive
NCCSC(c1ccccc1)c1ccccc1	-39.5% [at 11.4 µM] (inactive)
CCn1cnc2c(Nc3cccc(Cl)c3)nc(N[C@@H]3CCCC[C@H]3N)nc21	inactive
CCOP(=S)(OCC)Oc1nc(Cl)c(Cl)cc1Cl	inactive
Nc1cc(Cl)cc(C(=O)O)c1Cl	inactive
COC(=O)Nc1cccc(OC(=O)Nc2cccc(C)c2)c1	inactive

Q) Write down the reported activity change, positive = activation of "CCNC(C)(C)[C@@H](SS)c1ccc(Br)cc1" , test system: Cytochrome P450 3A4 (Homo sapiens) (UniProt P08684).
A) -31.2% [at 11.4 µM] (inactive)

Q) What measured activity change, positive = activation is associated with "Cc1cc(-c2cc(C)c(N)c(C)c2)cc(C)c1N" on Cytochrome P450 3A4 (Homo sapiens) (UniProt P08684)?
A) inactive

Q) Write down the reported activity change, positive = activation of "Nc1ccc(-c2ccc(N)c(Cl)c2)cc1Cl" , test system: Cytochrome P450 3A4 (Homo sapiens) (UniProt P08684).
A) inactive

Q) Provide the documented activity change, positive = activation with Cytochrome P450 3A4 (Homo sapiens) (UniProt P08684) as the system for CCOC(=O)CC(SP(=O)(OC)OC)C(=O)OCC (configuration not stated)
A) inactive

* * *

- target entity: Peroxisome proliferator-activated receptor gamma (Homo sapiens)
- method summary: qHTS assay for small molecule antagonists of peroxisome proliferator-activated receptor gamma signaling (AID 588537);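 also: reporter cells co-stimulated with 50 nM rosiglitazone agonist during compound treatment; % of control where 0% means no effect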
- particulars: HEK293 PPARg-UAS-bla, beta-lactamase ratio, antagonist mode; series mostly up to 76.8 µM
- Excerpt: NIH Chemical Genomics Center [NCGC] U.S. Environmental Protection Agency [EPA] National Institutes of Environmental Health Sciences [NIEHS] National Toxicology Program [NTP] The Peroxisome proliferator-activated receptors (PPARs) are lipid-activated transcription factors of the nuclear receptor superfamily with three distinct subtypes namely PPAR alpha, PPAR delta (also called PPAR beta) and PPAR gamma. […] 9. Detection; Fluorescence; Envision plate reader
Records with an inconclusive call do not appear. Activity calls are given as the source filed them. The call rests on the fitted dose curve; in most records, active means well fitted inhibition curve with a large enough effect in the signal ratio, with a control signal flat (not every such curve was filed as active); inconclusive means small, poorly fitted or top-dose-only effect, or effect the other way, or a change in a side signal; inactive means flat fitted curve, though single readings scatter; the % refers to the signal ratio.
measured metric: outcome

Sample answers from the record:
compound	target entity	measured metric	result
CC12CC1(C)C(=O)N(c1cc(Cl)cc(Cl)c1)C2=O (centres undefined)	Peroxisome proliferator-activated receptor gamma (Homo sapiens)	outcome	inactive
OCC(Cl)CCl (centres undefined)	Peroxisome proliferator-activated receptor gamma (Homo sapiens)	outcome	inactive
CC(C)(C)C(O)(CCc1ccc(Cl)cc1)Cn1cncn1 (centres undefined)	Peroxisome proliferator-activated receptor gamma (Homo sapiens)	outcome	inactive
CCCCCCCCCCCOC(=O)c1ccccc1C(=O)OCCCCCCCCCCC	Peroxisome proliferator-activated receptor gamma (Homo sapiens)	outcome	inactive
Cc1ccccc1[N+](=O)[O-]	Peroxisome proliferator-activated receptor gamma (Homo sapiens)	outcome	inactive

Continue with the next compound.
Q) Record request: outcome value, item c1ccc(C2CO2)cc1 (centres undefined)
A) inactive

* * *

- target entity: Cytochrome P450 1A2 (Homo sapiens)
- method summary: p450-cyp1a2 (AID 410);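 also: -100% = full effect of reference inhibitor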
- particulars: recombinant CYP1A2, luciferin-ME demethylation, luminescence; series mostly up to 11.4 µM
Results filed as inconclusive are left out. The source made the active and inactive calls. The call rests on the fitted dose curve.
Below: a set of entries, each annotated with reported activity change, negative = inhibition.

compound	activity change, negative = inhibition
CO[C@@H]([CH2][Hg])CN1C(=O)c2ccccc2S1(=O)=O.Cn1c(=O)c2nc[nH]c2n(C)c1=O	-22% [at 2.29 µM] (inactive)
C[C@@H]1O[C@H](OC2[C@@H](O)[C@H](O)C(O)[C@H](O)[C@H]2O)[C@@H](N)C[C@@H]1N=C(N)C(=O)O (stereo partly specified)	1.2% [at 2.29 µM] (inactive)
[N-]=[N+]=NCC(=O)c1c[nH]c(=O)[nH]c1=O	0.1% [at 2.29 µM] (inactive)
O=S(=O)(O)/C(=C\c1ccccc1)c1ccccc1 (tested in a mixture with another compound)	-29% [at 2.29 µM] (inactive)

Q) What value of measured activity change, negative = inhibition is listed for "CC(=O)OC1=CC2=CC[C@H]3[C@H]4CCC(=O)[C@@]4(C)CC(=O)[C@]3(S)[C@]2(C)CC1" ?
A) -9.4% [at 2.29 µM] (inactive)

Q) Could you share which activity change, negative = inhibition value was measured for "C[C@H](CC(C#N)(c1ccccc1)c1ccccc1)N1CCCCC1" ?
A) 7.1% [at 2.29 µM] (inactive)

Q) Request the reported activity change, negative = inhibition associated with "O=C(O)[C@@H](O)[C@@H](O)[C@@H]1[O][Sb][O][C@@H]1CO"
A) -5.1% [at 2.29 µM] (inactive)

* * *

- method summary: AP1 Signaling Pathway (AID 357);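 also: ME-180 reporter cells stimulated with EGF at its EC50 level; % is scaled to controls: 0 for no effect and ±100 for the full control effect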
- particulars: ME-180 (cervical carcinoma) AP-1-bla reporter, EGF-induced, beta-lactamase ratio, 5 h; at 7.69 µM (top of the series) unless noted
Inconclusive results are not listed. Active and inactive are the calls of the source. Calls follow the shape of the dose curve; as a rule, active = well fitted curve in either direction with a large enough effect (not every such curve was filed as active); inconclusive = small, poorly fitted or top-dose-only effect, or another doubt; inactive = flat fitted curve, though single readings scatter.
measured metric: activity change, negative = inhibition

Below: 10 compounds and their reported activity change, negative = inhibition.
compound	result
CC(=O)O/C(=C1/C[C@H]2[C@@H]3CC=C4C[C@@H](OC(C)=O)CC[C@]4(C)[C@@H]3CC[C@]2(C)C1=O)C(F)(F)F	-23.8% (inactive)
C[C@@]12CC[C@H]3[C@@H](CCC4=C(O)C(=O)CC[C@]43C)[C@H]1CCC2=O	4.24% [at 38 µM] (inactive)
O=C(O)C(Oc1nc(=S)[nH]c(=S)[nH]1)(c1ccc(Cl)cc1)c1ccc(Cl)cc1	17% (inactive)
CN[C@H](Cc1ccccc1)c1cccc(OC)c1O	4.57% (inactive)
O=C(O)C[O][Sb][O]CC(=O)O	4.83% (inactive)
C[C@@]12CC[C@H]3[C@H](CCC4=CC(=O)CC[C@H]43)[C@H]1CC[C@H]2OC1(O)C(=O)c2ccccc2C1=O	1.93% (inactive)
COc1ccc2c(c1O)-c1cccc3c1[C@H](C2)N(C)CC3	-2.14% [at 38 µM] (inactive)
N[C@H](Cc1ccccc1)c1nn[nH]n1	11.1% (inactive)
O=C1N[C@@]2(CN3CCC2CC3)C(=O)N1CN(Cc1ccccc1)c1ccccc1	-6.81% (inactive)
C[n+]1c(/C=C\c2ccc(O)c3ncccc23)[se]c2ccccc21	-7.45% (inactive)

Q) // activity change, negative = inhibition lookup, key: O=C1C[C@@H]2OCC=C3CN4CC[C@]56c7ccccc7N1[C@@H]5[C@@H]2[C@H]3C[C@H]46 (tested in a mixture with another compound)
A) 5.95% (inactive)

Q) Which activity change, negative = inhibition value belongs to "O=C(O)CNC(=O)c1ccc([As](=O)(O)O)cc1" ?
A) 9.68% (inactive)

Q) // activity change, negative = inhibition lookup, key: "N[C@H](Cn1ccc(=O)[nH]c1=O)C(=O)O"
A) -6.11% [at 38 µM] (inactive)

Q) # get_value(readout='activity change, negative = inhibition', item= O=C(O)[C@H]1[O][Sb][O][C@@H](C(=O)O)C1O (stereo partly specified) )
A) 1.25% (inactive)

Q) Given the compound "O=S(=O)(NCCO)c1cc[c]([Sb](=[O])([OH])[OH])cc1" , what is its reported activity change, negative = inhibition?
A) -1.39% (inactive)

Q) Record request: activity change, negative = inhibition value, item "CCCN1CC[C@@H]2c3cc(O)ccc3CC[C@H]21"
A) -14.4% [at 38 µM] (inactive)
